The reported measurements were obtained from paper PMC6858373.

The following compounds are shown together with reported Split Luciferase Assay Z-score Set 2 values.
target: FGF14:Nav1.6 C-tail complex (Homo sapiens, UniProt Q92915+Q9UQD0); construct: polymerase chain reaction (PCR) amplification of the FGF14 open reading frame (nt 1–855); C-terminal fragment of Nav1.6 (amino acids 1763–1976) fused with CD4ΔC-tail (amino acids 1–395); expressed in transfected cells; assay: Split-luciferase complementation assay (LCA) in Clone V double stable HEK293 cells; format: cell-based; details: CC_NCI screening, biological replicate Set 2; normalized to on-plate 0.3% DMSO controls
Sequence (Q92915 1-252 isoform Q92915-2): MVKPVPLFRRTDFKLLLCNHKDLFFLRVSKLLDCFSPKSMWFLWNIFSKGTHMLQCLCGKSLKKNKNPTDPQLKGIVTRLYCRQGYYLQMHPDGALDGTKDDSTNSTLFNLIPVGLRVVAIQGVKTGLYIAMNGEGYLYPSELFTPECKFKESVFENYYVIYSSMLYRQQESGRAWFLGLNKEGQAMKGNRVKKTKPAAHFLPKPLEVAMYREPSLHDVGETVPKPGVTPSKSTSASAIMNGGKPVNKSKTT
Sequence (Q9UQD0 1763-1976 limits assumed): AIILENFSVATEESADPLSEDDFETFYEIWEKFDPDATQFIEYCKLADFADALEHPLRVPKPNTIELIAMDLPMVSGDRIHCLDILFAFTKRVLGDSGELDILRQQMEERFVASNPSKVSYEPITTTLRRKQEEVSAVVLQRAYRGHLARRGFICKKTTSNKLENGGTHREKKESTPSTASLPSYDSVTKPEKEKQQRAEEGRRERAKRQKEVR
Structures can show the parent of a compound that is named as a salt.
When you answer, write just the number.

Record excerpt, results attached:
1. Cl.N[C@@H](Cc1ccc(N(CCCl)CCCl)cc1)C(=O)O [Melphalan hydrochloride] | -0.10
2. S=P(N1CC1)(N1CC1)N1CC1 | 2.11
3. CCCCC(=O)OCC(=O)[C@]1(O)Cc2c(O)c3c(c(O)c2[C@@H](O[C@H]2C[C@H](NC(=O)C(F)(F)F)[C@H](O)[C@H](C)O2)C1)C(=O)c1c(OC)cccc1C3=O | 1.17
4. O=NN(CCCl)C(=O)NC1CCCCC1 | 2.53

Answer with the recorded Split Luciferase Assay Z-score Set 2 of COc1cc([C@@H]2c3cc4c(cc3[C@@H](O[C@@H]3O[C@@H]5CO[C@@H](c6cccs6)O[C@H]5[C@H](O)[C@H]3O)[C@H]3COC(=O)[C@H]23)OCO4)cc(OC)c1O [Teniposide] only.
2.11

Answer with the recorded Split Luciferase Assay Z-score Set 2 of CS(=O)(=O)CCNCc1ccc(-c2ccc3ncnc(Nc4ccc(OCc5cccc(F)c5)c(Cl)c4)c3c2)o1 only.
-1.87

Answer with the recorded Split Luciferase Assay Z-score Set 2 of Cn1cc(/C=C2\C(=O)Nc3cccnc32)c2ccccc21 only.
-2.30

Answer with the recorded Split Luciferase Assay Z-score Set 2 of O=c1[nH]nc(Sc2ncc([N+](=O)[O-])s2)n1-c1ccc2c(c1)OCCO2 only.
-7.88

Answer with the recorded Split Luciferase Assay Z-score Set 2 of CC(=O)OCCN1C(=O)c2c(C)nc3ccc(S(=O)(=O)N4CCOCC4)cc3c2C1=O only.
-3.23

Answer with the recorded Split Luciferase Assay Z-score Set 2 of C[C@@H](CN1CC(=O)NC(=O)C1)N1CC(=O)NC(=O)C1 only.
1.51

Answer with the recorded Split Luciferase Assay Z-score Set 2 of O=C1NC(=O)c2c1c1c3ccccc3n3c1c1c2c2ccccc2n1C1CCC3O1 only.
-1.79

Answer with the recorded Split Luciferase Assay Z-score Set 2 of Nc1ccn([C@@H]2O[C@H](CO)[C@@H](O)C2(F)F)c(=O)n1 [Gemcitabine hydrochloride] only.
-0.43

Answer with the recorded Split Luciferase Assay Z-score Set 2 of Cc1cc(C(C)Nc2ccccc2)c2nc(N3CCOCC3)cc(=O)n2c1 (stereo not shown) only.
1.94

* * *

biological target: full-length P. pyralis luciferase (Photinus pyralis, UniProt P08659, K549A/L550V/N119G/N50D/S548I); type: cell-based; settings: CC_NCI screening; normalized to on-plate 0.3% DMSO controls
Sequence (P08659 whole entry N50D/N119G/S548I/K549A/L550V, looked up): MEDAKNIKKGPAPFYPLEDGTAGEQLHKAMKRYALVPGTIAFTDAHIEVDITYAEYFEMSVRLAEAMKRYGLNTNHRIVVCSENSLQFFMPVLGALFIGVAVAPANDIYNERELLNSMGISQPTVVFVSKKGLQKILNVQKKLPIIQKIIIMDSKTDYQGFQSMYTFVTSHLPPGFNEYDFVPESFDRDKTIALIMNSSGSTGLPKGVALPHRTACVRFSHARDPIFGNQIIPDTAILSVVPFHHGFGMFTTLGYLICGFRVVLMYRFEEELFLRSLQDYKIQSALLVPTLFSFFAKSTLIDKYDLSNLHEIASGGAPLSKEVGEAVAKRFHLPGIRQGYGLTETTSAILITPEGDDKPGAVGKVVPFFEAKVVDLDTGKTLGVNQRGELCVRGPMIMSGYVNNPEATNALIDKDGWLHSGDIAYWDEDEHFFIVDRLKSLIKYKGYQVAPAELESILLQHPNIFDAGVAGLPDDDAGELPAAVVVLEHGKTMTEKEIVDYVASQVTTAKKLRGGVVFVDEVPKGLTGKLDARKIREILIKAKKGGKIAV
Structures can show the parent of a compound that is named as a salt.
The following compounds are shown together with reported Luciferase Assay % Lum (full-length luciferase counter-screen) values.
Record the value in %, omitting the unit from your answer.

1. O=C1NC(=O)c2c1c1c3ccccc3n3c1c1c2c2ccccc2n1C1CCC3O1 | 92.40
2. Nc1ccccc1NC(=O)c1ccc(CNC(=O)OCc2cccnc2)cc1 | 107.21
3. Oc1c2ccccc2c2c3c(cccc13)N=N2 | 110.92
4. NC(=O)c1ccc(N(C(N)=O)c2c(F)cccc2F)nc1-c1ccc(F)cc1F | 93.91
5. CC(=O)OCCN1C(=O)c2c(C)nc3ccc(S(=O)(=O)N4CCOCC4)cc3c2C1=O | 102.63

Answer with the recorded Luciferase Assay % Lum (full-length luciferase counter-screen) of Cc1nc2sccn2c(=O)c1CCN1CCC(=C(c2ccccc2)c2ccc(F)cc2)CC1 only.
55.65

Answer with the recorded Luciferase Assay % Lum (full-length luciferase counter-screen) of O=C1NC(=O)/C(=C/c2ccc3c(c2)OCO3)S1 only.
84.77

Answer with the recorded Luciferase Assay % Lum (full-length luciferase counter-screen) of Cc1nc2c(O)cccc2c(=O)[nH]1 only.
89.72

Answer with the recorded Luciferase Assay % Lum (full-length luciferase counter-screen) of C[C@@H](Oc1cc(-c2cnn(C3CCNCC3)c2)cnc1N)c1c(Cl)ccc(F)c1Cl [Crizotinib, reference compound] only.
91.93

Answer with the recorded Luciferase Assay % Lum (full-length luciferase counter-screen) of Cl.N[C@@H](Cc1ccc(N(CCCl)CCCl)cc1)C(=O)O [Melphalan hydrochloride] only.
85.47

Answer with the recorded Luciferase Assay % Lum (full-length luciferase counter-screen) of COc1cc(F)c(F)c(Nc2ccc(I)cc2F)c1NS(=O)(=O)C1(C[C@H](O)CO)CC1 only.
66.81

Answer with the recorded Luciferase Assay % Lum (full-length luciferase counter-screen) of CN(C)C[C@@H]1CCn2cc(c3ccccc32)C2=C(C(=O)NC2=O)c2cn(c3ccccc23)CCO1 [LY 333531, reference compound] only.
78.46

Answer with the recorded Luciferase Assay % Lum (full-length luciferase counter-screen) of O=C1NC(=O)/C(=C/c2ccc3c(c2)OC(F)(F)O3)S1 only.
62.77

Answer with the recorded Luciferase Assay % Lum (full-length luciferase counter-screen) of O=NN(CCCl)C(=O)NC1CCCCC1 only.
109.33

Answer with the recorded Luciferase Assay % Lum (full-length luciferase counter-screen) of CC(=O)[C@]1(O)Cc2c(O)c3c(c(O)c2[C@@H](O[C@H]2C[C@H](N)[C@H](O)[C@H](C)O2)C1)C(=O)c1ccccc1C3=O [Idarubicin hydrochloride] only.
114.41

Answer with the recorded Luciferase Assay % Lum (full-length luciferase counter-screen) of Nc1ncn([C@H]2C[C@H](O)[C@@H](CO)O2)c(=O)n1 [Decitabine, reference compound] only.
110.67

Answer with the recorded Luciferase Assay % Lum (full-length luciferase counter-screen) of Cc1cc(C(C)Nc2ccccc2)c2nc(N3CCOCC3)cc(=O)n2c1 (centres unmarked) only.
101.89

* * *

The following compounds are shown together with reported Split Luciferase Assay % Lum Set 1 values.
target: FGF14:Nav1.6 C-tail complex (Homo sapiens, UniProt Q92915+Q9UQD0); construct: polymerase chain reaction (PCR) amplification of the FGF14 open reading frame (nt 1–855); C-terminal fragment of Nav1.6 (amino acids 1763–1976) fused with CD4ΔC-tail (amino acids 1–395); expressed in transfected cells; assay: Split-luciferase complementation assay (LCA) in Clone V double stable HEK293 cells; assay type: cell-based; settings: CC_NCI screening; LCA luminescence, biological replicate Set 1; normalized to on-plate 0.3% DMSO controls (n=16 per plate)
Counter-ions that a name gives are not always drawn.

Record excerpt, results attached:
1. COc1cc2c(Nc3ccc(Br)cc3F)ncnc2cc1OCC1CCN(C)CC1 [Vandetanib] | 89.47%
2. N#C/C(=C/c1ccc(O)c(O)c1)C(=O)NCc1ccccc1 [AG 490] | 118.82%
3. O=C(/C=C/c1cccc(S(=O)(=O)Nc2ccccc2)c1)NO [PXD101] | 105.78%
4. Cc1nc(Nc2ncc(C(=O)Nc3c(C)cccc3Cl)s2)cc(N2CCN(CCO)CC2)n1 [Dasatinib] | 92.73%
5. O=C(Nc1cccc(Nc2ncc(Br)c(NCCc3cnc[nH]3)n2)c1)N1CCCC1 [BX 912, reference compound] | 35.11%

Answer with the recorded Split Luciferase Assay % Lum Set 1 of CS(=O)(=O)c1ccc(C(=O)Nc2ccc(Cl)c(-c3ccccn3)c2)c(Cl)c1 [Vismodegib, reference compound] only.
175.35%

Answer with the recorded Split Luciferase Assay % Lum Set 1 of CC1=C(/C=C/C(C)=C/C=C/C(C)=C/C(=O)O)C(C)(C)CCC1 [Tretinoin] only.
117.73%

Answer with the recorded Split Luciferase Assay % Lum Set 1 of CO[C@H]1C[C@@H]2CC[C@@H](C)[C@@](O)(O2)C(=O)C(=O)N2CCCC[C@H]2C(=O)O[C@H]([C@H](C)C[C@@H]2CC[C@@H](OC(=O)C(C)(CO)CO)[C@H](OC)C2)CC(=O)[C@H](C)/C=C(\C)[C@@H](O)[C@@H](OC)C(=O)[C@H](C)C[C@H](C)/C=C/C=C/C=C/1C [TEMSIROLIMUS] only.
86.21%

Answer with the recorded Split Luciferase Assay % Lum Set 1 of CO[C@H]1C[C@@H]2CC[C@@H](C)[C@@](O)(O2)C(=O)C(=O)N2CCCC[C@H]2C(=O)O[C@H]([C@H](C)C[C@@H]2CC[C@@H](OCCO)[C@H](OC)C2)CC(=O)[C@H](C)/C=C(\C)[C@@H](O)[C@@H](OC)C(=O)[C@H](C)C[C@H](C)/C=C/C=C/C=C/1C [Everolimus] only.
76.42%

Answer with the recorded Split Luciferase Assay % Lum Set 1 of O=C(CCBr)N1CCN(C(=O)CCBr)CC1 [Pipobroman] only.
125.34%

Answer with the recorded Split Luciferase Assay % Lum Set 1 of Cn1cc(C2=C(c3cn(C4CCN(Cc5ccccn5)CC4)c4ccccc34)C(=O)NC2=O)c2ccccc21 [ENZASTAURIN] only.
84.03%

Answer with the recorded Split Luciferase Assay % Lum Set 1 of O=C1CCC(N2C(=O)c3ccccc3C2=O)C(=O)N1 (stereo not shown) [Thalidomide] only.
128.60%

Answer with the recorded Split Luciferase Assay % Lum Set 1 of CCC1=C[C@@H]2CN(C1)Cc1c([nH]c3ccccc13)[C@@](C(=O)OC)(c1cc3c(cc1OC)N(C)[C@H]1[C@@](O)(C(=O)OC)[C@H](OC(C)=O)[C@]4(CC)C=CCN5CC[C@]31[C@@H]54)C2 [Vinorelbine tartrate] only.
231.88%
